system: Staphylococcus sp.; test: In vitro antibacterial evaluation: minimum inhibitory concentration (MIC), broth dilution method; assay type: cell-based; details: strain GC 4547
Hi there, I'd appreciate the recorded MIC Coagulase Negative Staphylococcus (GC 4547) for every entry that follows.
Could you give me the number in µg/mL? Just the number is fine.

// query Output MIC Coagulase Negative Staphylococcus (GC 4547) of CC(c1ccccc1)C1NC(=O)CNC(=O)C(CO)NC(=O)C(C(O)C2CNC(=N)N2C2OC(CO)C(O)C(O)C2O)NC(=O)C(C(O)C2CNC(=N)N2)NC(=O)C(Cc2ccc(OC3OC(CO)C(OC4OC5COC(c6cccc(Oc7cccc(C(F)(F)F)c7)c6)OC5C(O)C4O)C(O)C3O)cc2)NC1=O (stereo not shown) [Example 184]
// result 32

// query Output MIC Coagulase Negative Staphylococcus (GC 4547) of CC(c1ccccc1)C1NC(=O)CNC(=O)C(CO)NC(=O)C(C(O)C2CN(c3ncccn3)C(=N)N2C2OC(CO)C(O)C(O)C2O)NC(=O)C(C(O)C2CNC(=Nc3ncccn3)N2)NC(=O)C(Cc2ccc(OC3OC(CO)C(OC4OC5COC6(OC5C(O)C4O)C4CC5CC(C4)CC6C5)C(O)C3O)cc2)NC1=O (stereo not shown) [Example 228]
// result 16

// query Output MIC Coagulase Negative Staphylococcus (GC 4547) of CC(c1ccccc1)C1NC(=O)CNC(=O)C(CO)NC(=O)C(C(O)C2CNC(=N)N2C2OC(CO)C(O)C(O)C2O)NC(=O)C(C(O)C2CNC(=N)N2)NC(=O)C(Cc2ccc(OC3OC(COC(=O)Cc4ccccc4)C(OC4OC(CO)C(O)C(O)C4O)C(O)C3O)cc2)NC1=O (stereo not shown) [Example 98b]
// result 8

// query Output MIC Coagulase Negative Staphylococcus (GC 4547) of CC(c1ccccc1)C1NC(=O)CNC(=O)C(CO)NC(=O)C(C(O)C2CN(Cc3ccc(C(F)(F)F)cc3)C(=N)N2C2OC(CO)C(O)C(O)C2O)NC(=O)C(C(O)C2CNC(=N)N2)NC(=O)C(Cc2ccc(OC3OC(CO)C(OC4OC5COC6(OC5C(O)C4O)C4CC5CC(C4)CC6C5)C(O)C3O)cc2)NC1=O (stereo not shown) [Example 226]
// result 8

----------
test system: Staphylococcus sp.; experiment: In vitro antibacterial evaluation: minimum inhibitory concentration (MIC), broth dilution method; format: cell-based; conditions: Staphylococcus aureus (ATCC 29213); 18 hours at 35° C.
Numbered stars: 1 amine (or outer) side, 2 acyl side, 3 side chain; on linkers, the order of the positions; unused ones are H or OH. Square brackets hold non-standard residues; d marks the D form. Peptide text beside a SMILES is read from it. ξ: configuration not given here. X1 = N=C1NCC(C(O)C(N[*:1])C(=O)[*:2])N1C1OC(CO)C(O)C(O)C1O; ξEnduracididine(βξ-OH,4'ξ) = N=C1NCC(C(O)C(N)C(=O)O)N1
assay_metric: MIC Staphylococcus aureus (ATCC 29213)

// query Output MIC Staphylococcus aureus (ATCC 29213) of COc1ccc(COCC2OC(OC3C(CO)OC(Oc4ccc(CC5NC(=O)C(C(C)c6ccccc6)NC(=O)CNC(=O)C(CO)NC(=O)C(C(O)C6CNC(=N)N6C6OC(CO)C(O)C(O)C6O)NC(=O)C(C(O)C6CNC(=N)N6)NC5=O)cc4)C(O)C3O)C(O)C(O)C2O)cc1F (stereo not shown)
// result 4 µg/mL

// query Output MIC Staphylococcus aureus (ATCC 29213) of N=C1NCC(C(O)C2NC(=O)C(Cc3ccc(O)cc3)NC(=O)C(Cc3ccccc3)NC(=O)CNC(=O)C(CO)NC(=O)C(C(O)C3CNC(=N)N3C3OC(CO)C(O)C(O)C3O)NC2=O)N1 (stereo not drawn) [Example 279a] (cyclo(GFY[ξEnduracididine(βξ-OH,4'ξ)][X1]S); configuration not given here)
// result >64 µg/mL

// query Output MIC Staphylococcus aureus (ATCC 29213) of CC(c1ccccc1)C1NC(=O)CNC(=O)C(CO)NC(=O)C(C(O)C2CNC(=N)N2C2OC(CO)C(O)C(O)C2O)NC(=O)C(C(O)C2CNC(=N)N2)NC(=O)C(Cc2ccc(OC3OC(CO)C(OC4OC(COCC=Cc5ccc(N(C)C)cc5)C(O)C(O)C4O)C(O)C3O)cc2)NC1=O (stereo not shown)
// result 64 µg/mL

// query Output MIC Staphylococcus aureus (ATCC 29213) of CC(c1ccccc1)C1NC(=O)CNC(=O)C(CO)NC(=O)C(CC2CNC(=N)N2C2OC(CO)C(O)C(O)C2O)NC(=O)C(CC2CNC(=N)N2)NC(=O)C(Cc2ccc(OC3OC(CO)C(OC4OC(CO)C(O)C(OCc5ccc(OCc6ccccc6)cc5)C4O)C(O)C3O)cc2)NC1=O (stereo not shown) [Example 246b]
// result 64 µg/mL

----------
test system: Staphylococcus sp.; assay: In vitro antibacterial evaluation: minimum inhibitory concentration (MIC), broth dilution method; assay type: cell-based; details: strain GC 4545; broth dilution, 18 hours at 35° C.
assay_metric: MIC Staphylococcus aureus (GC 4545) (µg/mL)
Could you give me the number in µg/mL? Just the number is fine.

// query Output MIC Staphylococcus aureus (GC 4545) of CC(c1ccccc1)C1NC(=O)CNC(=O)C(CO)NC(=O)C(C(O)C2CNC(=N)N2C2OC(CO)C(O)C(O)C2O)NC(=O)C(C(O)C2CNC(=N)N2)NC(=O)C(Cc2ccc(OC3OC(CO)C(OC4OC5COC(c6cc7c(cc6Cl)OCO7)OC5C(O)C4O)C(O)C3O)cc2)NC1=O (stereo not shown)
// result 2

// query Output MIC Staphylococcus aureus (GC 4545) of CC(C)=CCCC(C)C1OCC2OC(OC3C(CO)OC(Oc4ccc(CC5NC(=O)C(C(C)c6ccccc6)NC(=O)CNC(=O)C(CO)NC(=O)C(C(O)C6CNC(=N)N6C6OC(CO)C(O)C(O)C6O)NC(=O)C(C(O)C6CNC(=N)N6)NC5=O)cc4)C(O)C3O)C(O)C(O)C2O1 (stereo not shown)
// result 32

----------
system: Staphylococcus sp.; experiment: In vitro antibacterial evaluation: minimum inhibitory concentration (MIC), broth dilution method; format: cell-based; conditions: strain GC 4543; 18 hours at 35° C.
Hi there, I'd appreciate the recorded MIC Staphylococcus aureus-SMITH (GC 4543) for every entry that follows.
Could you give me the number in µg/mL? Just the number is fine.

// query GET MIC Staphylococcus aureus-SMITH (GC 4543) | system: Staphylococcus sp. | item: Cc1ccc(CC2OCC3OC(OC4C(CO)OC(Oc5ccc(CC6NC(=O)C(C(C)c7ccccc7)NC(=O)CNC(=O)C(CO)NC(=O)C(C(O)C7CNC(=N)N7C7OC(CO)C(O)C(O)C7O)NC(=O)C(C(O)C7CNC(=N)N7)NC6=O)cc5)C(O)C4O)C(O)C(O)C3O2)cc1 (stereo not shown) [Example 119]
// result 1

// query GET MIC Staphylococcus aureus-SMITH (GC 4543) | system: Staphylococcus sp. | item: CC(C)=CCCC1OCC2OC(OC3C(CO)OC(Oc4ccc(CC5NC(=O)C(C(C)c6ccccc6)NC(=O)CNC(=O)C(CO)NC(=O)C(C(O)C6CNC(=N)N6C6OC(CO)C(O)C(O)C6O)NC(=O)C(C(O)C6CNC(=N)N6)NC5=O)cc4)C(O)C3O)C(O)C(O)C2O1 (stereo not shown) [Example 123]
// result 4

// query GET MIC Staphylococcus aureus-SMITH (GC 4543) | system: Staphylococcus sp. | item: CC(c1ccccc1)C1NC(=O)CNC(=O)C(CO)NC(=O)C(C(O)C2CNC(=N)N2C2OC(CO)C(O)C(O)C2O)NC(=O)C(C(O)C2CNC(=N)N2)NC(=O)C(Cc2ccc(OC3OC(CO)C(OC4OC(COC(=O)C(c5ccccc5)c5ccccc5)C(O)C(O)C4O)C(O)C3O)cc2)NC1=O (stereo not shown) [Example 96c]
// result 0.5

// query GET MIC Staphylococcus aureus-SMITH (GC 4543) | system: Staphylococcus sp. | item: CC(c1ccccc1)C1NC(=O)CNC(=O)C(CO)NC(=O)C(C(O)C2CNC(=N)N2C2OC(CO)C(O)C(O)C2O)NC(=O)C(C(O)C2CNC(=N)N2)NC(=O)C(Cc2ccc(OC3OC(COC(=O)OCc4ccccc4)C(OC4OC(CO)C(O)C(O)C4O)C(O)C3O)cc2)NC1=O (stereo not shown) [Example 101]
// result 4

----------
test system: Enterococcus sp.; assay: In vitro antibacterial evaluation: minimum inhibitory concentration (MIC), broth dilution method; type: cell-based; settings: broth dilution, inoculum 5×10^5 CFU/mL, 18 hours at 35° C.
Hi there, I'd appreciate the recorded MIC Enterococcus faecium (GC 4557) for every entry that follows.

// query Output MIC Enterococcus faecium (GC 4557) of CC(c1ccccc1)C1NC(=O)CNC(=O)C(CO)NC(=O)C(C(O)C2CNC(=N)N2C2OC(CO)C(O)C(O)C2O)NC(=O)C(C(O)C2CNC(=N)N2)NC(=O)C(Cc2ccc(OC3OC(CO)C(OC4OC(CO)C(OCc5ccc(OCc6ccccc6)cc5)C(O)C4O)C(O)C3O)cc2)NC1=O (stereo not shown) [Example 231a]
// result 2 µg/mL

// query Output MIC Enterococcus faecium (GC 4557) of CCCCN1CC(C(O)C2NC(=O)C(C(O)C3CNC(=N)N3)NC(=O)C(Cc3ccc(OC4OC(CO)C(OC5OC6COC7(OC6C(O)C5O)C5CC6CC(C5)CC7C6)C(O)C4O)cc3)NC(=O)C(C(C)c3ccccc3)NC(=O)CNC(=O)C(CO)NC2=O)N(C2OC(CO)C(O)C(O)C2O)C1=N (stereo not shown) [Example 224]
// result 0.5 µg/mL

// query Output MIC Enterococcus faecium (GC 4557) of CC(c1ccccc1)C1NC(=O)CNC(=O)C(CO)NC(=O)C(C(O)C2CNC(=N)N2C2OC(CO)C(O)C(O)C2O)NC(=O)C(C(O)C2CNC(=N)N2)NC(=O)C(Cc2ccc(OC3OC(CO)C(OC4OC5COC(C)(c6ccc(F)cc6)OC5C(O)C4O)C(O)C3O)cc2)NC1=O (stereo not shown) [Example 216]
// result 4 µg/mL

// query Output MIC Enterococcus faecium (GC 4557) of CC(c1ccccc1)C1NC(=O)CNC(=O)C(CO)NC(=O)C(C(O)C2CNC(=N)N2C2OC(CO)C(O)C(O)C2O)NC(=O)C(C(O)C2CNC(=N)N2)NC(=O)C(Cc2ccc(OC3OC(CO)C(OC4OC5COC(c6ccccc6)OC5C(O)C4O)C(O)C3O)c(I)c2)NC1=O (stereo not shown) [Example 196]
// result 8 µg/mL

Taken from patent US8247211B2.
